Data credit: paper PMC4594013

Below: a set of entries, each annotated with reported % Inhibition.
- Subject of test: OAT2-tv1 (Homo sapiens)
- Sequence (Q9Y694 1-546 isoform Q9Y694-2): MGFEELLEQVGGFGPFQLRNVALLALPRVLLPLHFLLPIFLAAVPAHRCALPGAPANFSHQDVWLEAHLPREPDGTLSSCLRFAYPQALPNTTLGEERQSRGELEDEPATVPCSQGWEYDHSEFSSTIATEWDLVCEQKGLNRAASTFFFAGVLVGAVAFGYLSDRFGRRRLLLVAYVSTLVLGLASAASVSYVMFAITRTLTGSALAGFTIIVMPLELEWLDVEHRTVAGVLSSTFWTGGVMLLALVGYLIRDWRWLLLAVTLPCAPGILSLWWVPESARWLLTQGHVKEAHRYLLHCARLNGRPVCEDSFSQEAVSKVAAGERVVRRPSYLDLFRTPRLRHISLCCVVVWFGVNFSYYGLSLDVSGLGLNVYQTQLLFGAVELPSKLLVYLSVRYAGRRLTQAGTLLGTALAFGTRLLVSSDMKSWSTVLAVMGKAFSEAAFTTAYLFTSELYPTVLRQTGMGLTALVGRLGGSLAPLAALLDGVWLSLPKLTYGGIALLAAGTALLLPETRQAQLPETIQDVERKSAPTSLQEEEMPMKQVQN
- Method description: Inhibition of [3H]penciclovir uptake into CHO-OAT2-tv1 cells
- Type: cell-based
- Condition: inhibition of [3H]penciclovir uptake by CHO-OAT2-tv1 cells at the maximum concentration of test compound (Table 2, c1); 5 min, room temperature
Counter-ions that a name gives are not always drawn.
Metric name: % Inhibition (%)

[
  {
    "Compound": "CN(Cc1cnc2nc(N)nc(N)c2n1)c1ccc(C(=O)N[C@@H](CCC(=O)O)C(=O)O)cc1 [Methotrexate]",
    "Assay value": 76
  },
  {
    "Compound": "Nc1ccc(C(=O)NCC(=O)O)cc1 [para-aminohippurate]",
    "Assay value": 99
  },
  {
    "Compound": "CCOc1cc(CC(=O)N[C@@H](CC(C)C)c2ccccc2N2CCCCC2)ccc1C(=O)O [Repaglinide]",
    "Assay value": 99
  },
  {
    "Compound": "CC[N+](CC)(CC)CC",
    "Assay value": 42
  },
  {
    "Compound": "C[C@]12CC[C@@H]3c4ccc(OS(=O)(=O)O)cc4CC[C@H]3[C@@H]1CCC2=O [Estrone Sulfate]",
    "Assay value": 95
  },
  {
    "Compound": "Oc1ncnc2[nH]ncc12",
    "Assay value": 95
  },
  {
    "Compound": "Nc1nc2c(ncn2CCC(CO)CO)c(=O)[nH]1",
    "Assay value": 85
  },
  {
    "Compound": "CCCN(CCC)S(=O)(=O)c1ccc(C(=O)O)cc1",
    "Assay value": 64
  },
  {
    "Compound": "Nc1ccn(C[C@@H](CO)OCP(=O)(O)O)c(=O)n1",
    "Assay value": 53
  },
  {
    "Compound": "CCCc1nc2c(C)cc(-c3nc4ccccc4n3C)cc2n1Cc1ccc(-c2ccccc2C(=O)O)cc1",
    "Assay value": 96
  }
]
